Target: Aspartate--tRNA(Asp/Asn) ligase (Mycobacterium tuberculosis (strain ATCC 25618 / H37Rv)) (UniProt P9WFW3)
Sequence (P9WFW3 whole entry): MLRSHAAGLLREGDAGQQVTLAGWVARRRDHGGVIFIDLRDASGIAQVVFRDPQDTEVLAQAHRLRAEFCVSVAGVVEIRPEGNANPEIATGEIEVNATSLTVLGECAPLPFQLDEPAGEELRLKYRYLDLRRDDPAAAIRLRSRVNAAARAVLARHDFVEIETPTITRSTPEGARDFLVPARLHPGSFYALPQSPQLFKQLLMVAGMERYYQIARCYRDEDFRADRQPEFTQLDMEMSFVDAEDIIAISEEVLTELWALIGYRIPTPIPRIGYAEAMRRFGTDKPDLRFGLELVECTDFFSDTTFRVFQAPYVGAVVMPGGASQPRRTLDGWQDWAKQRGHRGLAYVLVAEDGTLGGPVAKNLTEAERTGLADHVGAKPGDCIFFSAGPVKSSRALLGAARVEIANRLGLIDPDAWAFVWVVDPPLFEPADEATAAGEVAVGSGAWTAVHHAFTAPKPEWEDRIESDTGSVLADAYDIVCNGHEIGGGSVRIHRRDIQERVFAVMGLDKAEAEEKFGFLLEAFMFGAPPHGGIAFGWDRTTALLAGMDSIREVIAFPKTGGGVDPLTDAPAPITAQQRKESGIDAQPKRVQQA
Assay: Assay for Asp RNA synthetase-1 from Mycobacterium tuberculosis
Assay type: functional
Design: scale not given: in the data most compounds retested in dose-response had high values
Conditions: 30 µM
Provide the reported Percent Effect of each item.
Answers are plain numbers, in %.

## Task Need Percent Effect of Cn1ccc(C(=O)N2CCN(c3cc(C#N)ccn3)CC2)cc1=O , thanks.
## Result 3.75

## Task // next record O=C1N(CC2CC2)CCC12CCN(c1ncccn1)CC2
## Result 3.3

## Task // next record CC(NC(=O)CNCCn1cccn1)c1ccc2c(c1)OCCO2 (centres undefined)
## Result -3.06

Hey, can you go through the list below and give me Percent Effect for every item?
1. COc1cc(C)nc(N2CCN(C(=O)c3ccccc3C)CC2)n1
2. CN(Cc1nnc(-c2ccco2)o1)C1CCCN(c2cccnn2)C1 (centres undefined)
3. O=C(NCCN1CCOCC1)c1n[nH]c(=O)c2ccccc12
4. Cc1nc(Nc2ncccn2)cc(C2CCCN2C2CCOCC2)n1 (centres undefined)
5. Cc1ccc(S(=O)(=O)NC(=O)c2cccc3c2OCCO3)c(C)c1
6. CN1CCN(c2nc(O)c3c(-c4ccccn4)ccnc3n2)CC1

## Result
1. 6.7
2. 0.611
3. -2
4. 2.13
5. -3.08
6. -3.26
